- ASSAYED SYSTEM: human orexin-2 receptor (Homo sapiens, UniProt O43614)
- Sequence (O43614 whole entry): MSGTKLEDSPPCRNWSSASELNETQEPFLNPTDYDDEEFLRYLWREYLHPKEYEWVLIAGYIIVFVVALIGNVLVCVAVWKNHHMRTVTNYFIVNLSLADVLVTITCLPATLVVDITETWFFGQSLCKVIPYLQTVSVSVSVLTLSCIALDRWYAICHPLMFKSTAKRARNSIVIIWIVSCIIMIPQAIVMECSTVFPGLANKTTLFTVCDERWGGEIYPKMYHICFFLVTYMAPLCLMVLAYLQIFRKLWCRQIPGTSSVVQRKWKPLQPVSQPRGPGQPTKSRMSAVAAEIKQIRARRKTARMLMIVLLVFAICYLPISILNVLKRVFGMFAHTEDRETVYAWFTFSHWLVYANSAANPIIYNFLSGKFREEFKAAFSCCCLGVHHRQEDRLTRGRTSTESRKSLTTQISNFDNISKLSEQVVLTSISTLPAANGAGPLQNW
- ASSAY COMMENT: Intracellular calcium measurements (FLIPR), orexin receptor antagonistic activity, OX2
- DETAILS: CHO cells expressing human orexin-2 receptor, 10 nM orexin-A as agonist
OBSERVATION TYPE: IC50

{"MOLECULE": "Cc1cccc(-c2sc(C)nc2C(=O)N2C[C@H]3C[C@H]3[C@H]2CNC(=O)c2sc(Br)nc2C)c1 (relative stereo)", "OBSERVATION TYPE": "IC50", "REPORTED": "16 nM"}
{"MOLECULE": "O=C(NC[C@@H]1[C@@H]2C[C@@H]2CN1C(=O)c1nccnc1-c1ccccc1)c1cccc2occc12 (relative stereo)", "OBSERVATION TYPE": "IC50", "REPORTED": "91 nM"}
{"MOLECULE": "Cc1cccc(-c2sc(C)nc2C(=O)N2C[C@H]3C[C@H]3[C@H]2CNC(=O)c2cnc(CC(C)C)c(C)c2)c1 (relative stereo)", "OBSERVATION TYPE": "IC50", "REPORTED": "80 nM"}
{"MOLECULE": "CCc1ccc(-c2sc(C)nc2C(=O)N2C[C@H]3C[C@H]3[C@H]2CNC(=O)c2cccc3occc23)cc1 (relative stereo)", "OBSERVATION TYPE": "IC50", "REPORTED": "33 nM"}
{"MOLECULE": "Cc1cccc(-c2sc(C#CCO)nc2C(=O)N2C[C@H]3C[C@H]3[C@H]2CNC(=O)c2c(C)nc3sccn23)c1 (relative stereo)", "OBSERVATION TYPE": "IC50", "REPORTED": "85 nM"}
{"MOLECULE": "Cc1cccc(-c2sc(C)nc2C(=O)N2C[C@H]3C[C@H]3[C@H]2CNC(=O)c2ccc(F)cc2Cl)c1 (relative stereo)", "OBSERVATION TYPE": "IC50", "REPORTED": "14 nM"}

====

- ASSAYED SYSTEM: human orexin-1 receptor (Homo sapiens)
- Sequence (O43613 1-425): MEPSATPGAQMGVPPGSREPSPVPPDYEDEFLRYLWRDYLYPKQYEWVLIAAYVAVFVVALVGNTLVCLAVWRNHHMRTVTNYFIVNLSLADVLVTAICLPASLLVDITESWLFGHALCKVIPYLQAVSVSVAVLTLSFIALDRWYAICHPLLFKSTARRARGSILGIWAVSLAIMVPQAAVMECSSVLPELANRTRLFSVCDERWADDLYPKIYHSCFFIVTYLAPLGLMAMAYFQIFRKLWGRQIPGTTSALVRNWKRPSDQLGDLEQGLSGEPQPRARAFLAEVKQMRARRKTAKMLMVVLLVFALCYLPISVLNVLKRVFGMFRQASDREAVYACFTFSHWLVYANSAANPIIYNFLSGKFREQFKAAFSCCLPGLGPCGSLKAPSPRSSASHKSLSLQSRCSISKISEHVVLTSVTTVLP
- ASSAY COMMENT: Intracellular calcium measurements (FLIPR), orexin receptor antagonistic activity, OX1
- DETAILS: CHO cells expressing human orexin-1 receptor, 10 nM orexin-A as agonist
pIC50: −log10 of the molar value.
Assign class by pIC50: not lower than 7 means met; lower than 7 means not met.

{"COMPOUND": "COc1ccc(-c2ocnc2C(=O)N2C[C@H]3C[C@H]3[C@H]2CNC(=O)c2cccc3occc23)cc1 (relative stereo)", "ASSIGNED LABEL": "not met"}
{"COMPOUND": "Cc1csc(-c2c(C)cccc2C(=O)N2C[C@H]3C[C@H]3[C@H]2CNC(=O)c2cccc3c2OCCO3)c1", "ASSIGNED LABEL": "not met"}
{"COMPOUND": "Cc1cccc(-c2sc(C)nc2C(=O)N2C[C@H]3C[C@H]3[C@H]2CNC(=O)c2cccc3c2CCCO3)c1 (relative stereo)", "ASSIGNED LABEL": "not met"}
{"COMPOUND": "Cc1cccc(-c2sc(C)nc2C(=O)N2C[C@H]3C[C@H]3[C@H]2CNC(=O)c2ccc(C)c(C(F)(F)F)c2)c1 (relative stereo)", "ASSIGNED LABEL": "met"}
{"COMPOUND": "Cc1cccc(-c2sc(C)nc2C(=O)N2C[C@H]3C[C@H]3[C@H]2CNC(=O)c2cccc(C)c2Cl)c1 (relative stereo)", "ASSIGNED LABEL": "not met"}
{"COMPOUND": "Cc1cccc(-c2sc(C)nc2C(=O)N2C[C@H]3C[C@H]3[C@H]2CNC(=O)c2cnc(CC(C)C)c(C)c2)c1 (relative stereo)", "ASSIGNED LABEL": "not met"}
{"COMPOUND": "Cc1nc(C(=O)N2C[C@H]3C[C@H]3[C@H]2CNC(=O)c2cnc3sccn23)c(-c2cccc(F)c2)s1 (relative stereo)", "ASSIGNED LABEL": "met"}
{"COMPOUND": "Cc1nc(C(=O)N2C[C@H]3C[C@H]3[C@H]2CNc2cnc3cc(F)c(F)cc3n2)c(-c2ccc(F)cc2)s1 (relative stereo)", "ASSIGNED LABEL": "not met"}
{"COMPOUND": "Cc1cccc(-c2sc(C#CCO)nc2C(=O)N2C[C@H]3C[C@H]3[C@H]2CNC(=O)c2c(C)nc3sccn23)c1 (relative stereo)", "ASSIGNED LABEL": "met"}
{"COMPOUND": "Cc1cccc(-c2sc(C)nc2C(=O)N2C[C@H]3C[C@H]3[C@H]2CNC(=O)c2cccc3c2C=CCO3)c1 (relative stereo)", "ASSIGNED LABEL": "met"}

meta.source: patent US20100016401A1
